# reported Cmax; entries follow
assay: Tissue distribution study; format: in vivo, male Wistar rats; conditions: male, Wistar, rat, heart, ip, 10 mg/kg
Attribute Measured: Cmax (µg/mL)

>>> df
                              sample_smiles  attribute_measured  unit_label  reported_measurement
0  CC(C)c1nc(CN(C)C(=O)N[C@H](C(=O)N[C@@H](Cc2ccccc2)C[C@H](O)[C@H](Cc2ccccc2)NC(=O)OCc2cncs2)C(C)C)cs1                Cmax       µg/mL                   2.4
1  O=C1Nc2ccc(Cl)cc2[C@@](C#CC2CC2)(C(F)(F)F)O1                Cmax       µg/mL                  4.67

---

test: Tissue distribution study; type: in vivo, male Wistar rats; settings: male, Wistar, rat, brain, ip, 10 mg/kg
Attribute Measured: Cmax (ng/mL)

>>> df
                                   compound  attribute_measured  unit_label  reported_measurement
0  O=C1Nc2ccc(Cl)cc2[C@@](C#CC2CC2)(C(F)(F)F)O1 [EFV, efavirenz]                Cmax       ng/mL                  6650
1  CC(C)c1nc(CN(C)C(=O)N[C@H](C(=O)N[C@@H](Cc2ccccc2)C[C@H](O)[C@H](Cc2ccccc2)NC(=O)OCc2cncs2)C(C)C)cs1 [RTV, ritonavir]                Cmax       ng/mL                   790

---

test: Tissue distribution study; format: in vivo, male Wistar rats; details: male, Wistar, rat, kidney, ip, 10 mg/kg
# reported Tmax; entries follow
Attribute Measured: Tmax (h)

>>> df
                              sample_smiles  unit_label  reported_measurement
0  CC(C)c1nc(CN(C)C(=O)N[C@H](C(=O)N[C@@H](Cc2ccccc2)C[C@H](O)[C@H](Cc2ccccc2)NC(=O)OCc2cncs2)C(C)C)cs1           h                     4
1  O=C1Nc2ccc(Cl)cc2[C@@](C#CC2CC2)(C(F)(F)F)O1           h                     6

---

experiment: Tissue distribution study; format: in vivo, male Wistar rats; conditions: male, Wistar, rat, spleen, ip, 10 mg/kg
# reported Tmax; entries follow
Attribute Measured: Tmax

>>> print(df.to_string())
                                   compound  reported_measurement
0  CC(C)c1nc(CN(C)C(=O)N[C@H](C(=O)N[C@@H](Cc2ccccc2)C[C@H](O)[C@H](Cc2ccccc2)NC(=O)OCc2cncs2)C(C)C)cs1 [RTV, ritonavir]                   4 h
1  O=C1Nc2ccc(Cl)cc2[C@@](C#CC2CC2)(C(F)(F)F)O1 [EFV, efavirenz]                   6 h

---

test: Tissue distribution study; type: in vivo, male Wistar rats; conditions: male, Wistar, rat, heart, ip, 10 mg/kg
# reported MRT; entries follow
Attribute Measured: MRT (h)

>>> print(df.to_string())
                              sample_smiles  unit_label  reported_measurement
0  O=C1Nc2ccc(Cl)cc2[C@@](C#CC2CC2)(C(F)(F)F)O1           h                  30.3
1  CC(C)c1nc(CN(C)C(=O)N[C@H](C(=O)N[C@@H](Cc2ccccc2)C[C@H](O)[C@H](Cc2ccccc2)NC(=O)OCc2cncs2)C(C)C)cs1           h                  15.6
